# target: X-box-binding protein 1 (Homo sapiens) (UniProt P17861)
# Sequence (P17861 whole entry, looked up): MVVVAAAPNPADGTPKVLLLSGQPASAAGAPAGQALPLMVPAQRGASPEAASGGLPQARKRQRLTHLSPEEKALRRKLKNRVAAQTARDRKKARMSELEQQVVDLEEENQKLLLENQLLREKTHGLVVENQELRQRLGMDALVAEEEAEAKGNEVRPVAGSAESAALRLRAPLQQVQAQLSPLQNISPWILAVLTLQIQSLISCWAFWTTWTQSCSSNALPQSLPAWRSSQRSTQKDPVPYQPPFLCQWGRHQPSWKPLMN
# assay-remarks: ATG_Xbp1_CIS: Attagene CIS-FACTORIAL HepG2 Assay for human X-box Binding Protein 1 (XBP1) (AID 2282972)
# measurement-setup: HepG2 XBP1 cis-element reporter, Attagene multiplex; actives raise or lower the signal
Calls of active or inactive are those of the source. Rule for the calls: active = hit-call score of the fitted dose curve at least 0.9, where 1 is the maximum; inactive = score below 0.9.
Answer with one of the outcomes given here: True for active, False for inactive

Worked examples, 6 molecules total:
>  <molecule>
Nc1cc(Cl)cc(Cl)c1

>  <target>
X-box-binding protein 1 (Homo sapiens) (UniProt P17861)

>  <group>
False

$$$$
>  <molecule>
CN(N=O)c1ccccc1

>  <target>
X-box-binding protein 1 (Homo sapiens) (UniProt P17861)

>  <group>
False

$$$$
>  <molecule>
C=CCc1ccc(OC(=O)Cc2ccccc2)c(OC)c1

>  <target>
X-box-binding protein 1 (Homo sapiens) (UniProt P17861)

>  <group>
False

$$$$
>  <molecule>
CC(C)C(=O)Cl

>  <target>
X-box-binding protein 1 (Homo sapiens) (UniProt P17861)

>  <group>
False

$$$$
>  <molecule>
C[C@]12CC[C@H](O)C[C@H]1CC[C@@H]1[C@@H]2C[C@@H](O)[C@]2(C)[C@@H](C3=CC(=O)OC3)CC[C@]12O

>  <target>
X-box-binding protein 1 (Homo sapiens) (UniProt P17861)

>  <group>
True

$$$$
>  <molecule>
O=[N+]([O-])O.O=[N+]([O-])O.[Cd]

>  <target>
X-box-binding protein 1 (Homo sapiens) (UniProt P17861)

>  <group>
True

$$$$

Field: next molecule
stdin: What is the recorded call for this molecule in the test? CC(C)(C)C(O)C(Oc1ccc(-c2ccccc2)cc1)n1cncn1 (configuration not stated)
stdout: False
